Target: FZD10 (Homo sapiens)
Construct: purchased Promega (in-house HiBiT-GPCR construct library, NanoBRET)
Sequence (Q9ULW2 21-581): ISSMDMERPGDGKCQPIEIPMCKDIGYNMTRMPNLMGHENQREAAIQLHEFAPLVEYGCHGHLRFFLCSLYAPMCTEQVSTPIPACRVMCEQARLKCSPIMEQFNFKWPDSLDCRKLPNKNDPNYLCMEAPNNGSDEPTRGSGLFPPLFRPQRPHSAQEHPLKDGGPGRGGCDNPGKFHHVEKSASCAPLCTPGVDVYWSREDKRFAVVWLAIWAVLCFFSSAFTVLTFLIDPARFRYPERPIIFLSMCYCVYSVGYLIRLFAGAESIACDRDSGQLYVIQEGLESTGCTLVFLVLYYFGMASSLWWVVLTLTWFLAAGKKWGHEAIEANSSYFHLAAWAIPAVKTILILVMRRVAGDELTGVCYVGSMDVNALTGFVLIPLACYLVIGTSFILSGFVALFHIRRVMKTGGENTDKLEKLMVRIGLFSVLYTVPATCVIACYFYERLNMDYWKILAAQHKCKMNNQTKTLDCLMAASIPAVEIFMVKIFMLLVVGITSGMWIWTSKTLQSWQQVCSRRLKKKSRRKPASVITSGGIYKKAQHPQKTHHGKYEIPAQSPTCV
Assay: NanoBRET screen HiBiT-FZD10 in HEK293
Assay type: binding
Conditions: FZD10; tracer 0.1μM
compounds and their reported NanoBRET Fold Response
Form field (numeric): enter value without unit.

Known NanoBRET Fold Response results, listed for orientation:
| Compound | Test Result |
| --- | --- |
| O=C(CCOCCOCCOCCOCCNC(=O)CCc1ccc2n1[B-](F)(F)[N+]1=C(c3ccc[nH]3)C=CC1=C2)NCCCN1CCN(C2=Nc3ccccc3Oc3ccc(Cl)cc32)CC1 [Loxapine-a-2-NB590] | 0.98 |
| O=C(CCc1ccc2n1[B-](F)(F)[N+]1=C(c3ccc[nH]3)C=CC1=C2)NCCOCCOCCNC(=O)OCCOCCN1CCN(C2=Nc3ccccc3Sc3ccccc32)CC1 [Quetiapine-a-2-NB590] | 0.92 |
| N#CN=C(NCCCOc1cccc(CN2CCCCC2)c1)NCCNC(=O)CCOCCOCCOCCOCCNC(=O)CCc1ccc2n1[B-](F)(F)[N+]1=C(c3ccc[nH]3)C=CC1=C2 [Aminopotentidine-2-NB590] | 0.99 |
| Cc1nc2n(c(=O)c1CCN1CCC(c3noc4cc(F)ccc34)CC1)CCCC2OC(=O)NCCOCCOCCOCCOCCNC(=O)CCc1ccc2n1[B-](F)(F)[N+]1=C(c3ccc[nH]3)C=CC1=C2 (centres unmarked) [Risperidone-2-NB590] | 1.00 |

With those in mind, consider the next compound.
Query: For the compound O=C(CCc1ccc2n1[B-](F)(F)[N+]1=C(c3ccc[nH]3)C=CC1=C2)NCc1ccc(C(=O)NCCOCCC(=O)N[C@@H]2CC[C@@]3(O)[C@H]4Cc5ccc(O)c6c5[C@@]3(CCN4CC3CC3)[C@H]2O6)cc1 [Naltrexone-3-NB590] , what NanoBRET Fold Response is on record?
Reply: 0.66

###

Target: PTGDR (Homo sapiens, UniProt Q13258)
Construct: purchased Promega (in-house HiBiT-GPCR construct library, NanoBRET)
Sequence (Q13258 whole entry): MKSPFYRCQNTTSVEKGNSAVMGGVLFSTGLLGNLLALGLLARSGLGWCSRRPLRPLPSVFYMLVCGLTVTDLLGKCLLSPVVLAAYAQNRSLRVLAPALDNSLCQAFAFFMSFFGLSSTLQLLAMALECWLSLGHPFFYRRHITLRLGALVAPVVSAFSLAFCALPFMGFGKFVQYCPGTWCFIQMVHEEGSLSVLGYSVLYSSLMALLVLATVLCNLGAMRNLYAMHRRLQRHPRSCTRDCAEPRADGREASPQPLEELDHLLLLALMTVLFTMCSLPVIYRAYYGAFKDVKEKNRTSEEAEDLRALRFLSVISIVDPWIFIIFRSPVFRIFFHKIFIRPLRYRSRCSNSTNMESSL
Experiment: NanoBRET screen HiBiT-PTGDR in HEK293
Format: binding
Conditions: PTGDR; tracer 1μM
The entries below are paired with their reported NanoBRET Fold Response.
# print the numeric value only

These solved cases illustrate the format of a correct answer.
| Compound | NanoBRET Fold Response |
| --- | --- |
| O=C(CCc1ccc2n1[B-](F)(F)[N+]1=C(c3ccc[nH]3)C=CC1=C2)NCc1ccc(C(=O)NCCOCCC(=O)N[C@@H]2CC[C@@]3(O)[C@H]4Cc5ccc(O)c6c5[C@@]3(CCN4CC3CC3)[C@H]2O6)cc1 [Naltrexone-3-NB590] | 0.97 |
| CC(C)N(CC[C@H](c1ccccc1)c1cc(CCNC(=O)c2ccc(CNC(=O)CCc3ccc4n3[B-](F)(F)[N+]3=C(c5ccc[nH]5)C=CC3=C4)cc2)ccc1O)C(C)C | 0.98 |
| O=C(CCc1ccc2n1[B-](F)(F)[N+]1=C(c3ccc[nH]3)C=CC1=C2)NCCOCCOCCNC(=O)OCCOCCN1CCN(C2=Nc3ccccc3Sc3ccccc32)CC1 | 1.02 |
| CC(C)N(CC[C@H](c1ccccc1)c1cc(CCNC(=O)CCOCCOCCOCCOCCNC(=O)CCc2ccc3n2[B-](F)(F)[N+]2=C(c4ccc[nH]4)C=CC2=C3)ccc1O)C(C)C | 0.96 |

Now for the compound whose NanoBRET Fold Response we want.
Query: Which NanoBRET Fold Response value belongs to O=C(CCOCCOCCOCCOCCNC(=O)CCc1ccc2n1[B-](F)(F)[N+]1=C(c3ccc[nH]3)C=CC1=C2)NCCCN1CCN(C2=Nc3ccccc3Oc3ccc(Cl)cc32)CC1 ?
Reply: 0.98

###

Biological target: P2RY10 (Homo sapiens, UniProt O00398)
Construct: purchased Promega (in-house HiBiT-GPCR construct library, NanoBRET)
Sequence (O00398 whole entry, one chain of several): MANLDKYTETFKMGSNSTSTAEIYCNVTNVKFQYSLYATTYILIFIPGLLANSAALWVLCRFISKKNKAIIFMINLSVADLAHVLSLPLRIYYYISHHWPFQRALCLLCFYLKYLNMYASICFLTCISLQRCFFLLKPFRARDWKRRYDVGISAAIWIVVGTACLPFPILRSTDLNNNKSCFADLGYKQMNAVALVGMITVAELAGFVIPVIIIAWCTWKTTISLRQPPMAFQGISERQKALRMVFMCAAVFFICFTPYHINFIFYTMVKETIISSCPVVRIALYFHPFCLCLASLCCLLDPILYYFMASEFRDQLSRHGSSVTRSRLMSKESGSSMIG
Assay: NanoBRET screen HiBiT-P2RY10 in HEK293
Type: binding
Conditions: P2RY10; tracer 0.1μM
Entries and their NanoBRET Fold Response
Answer with a bare number; do not write a unit.

Examples with answers:
| Mol Smiles | Experimental Target | NanoBRET Fold Response |
| --- | --- | --- |
| Cc1cc2c(s1)Nc1ccccc1N=C2N1CCN(CCCNC(=O)CCOCCOCCOCCOCCNC(=O)CCc2ccc3n2[B-](F)(F)[N+]2=C(c4ccc[nH]4)C=CC2=C3)CC1 | P2RY10 (Homo sapiens, UniProt O00398) | 0.99 |
| CC(C)N(CC[C@H](c1ccccc1)c1cc(CCNC(=O)c2ccc(CNC(=O)CCc3ccc4n3[B-](F)(F)[N+]3=C(c5ccc[nH]5)C=CC3=C4)cc2)ccc1O)C(C)C | P2RY10 (Homo sapiens, UniProt O00398) | 1.34 |
| N#CN=C(NCCCOc1cccc(CN2CCCCC2)c1)NCCNC(=O)CCOCCOCCOCCOCCNC(=O)CCc1ccc2n1[B-](F)(F)[N+]1=C(c3ccc[nH]3)C=CC1=C2 | P2RY10 (Homo sapiens, UniProt O00398) | 1.03 |

Query: For the compound COc1ccccc1N1CCN(CCCCN2C(=O)c3ccc(CNC(=O)CCOCCNC(=O)c4ccc(CNC(=O)CCc5ccc6n5[B-](F)(F)[N+]5=C(c7ccc[nH]7)C=CC5=C6)cc4)cc3C2=O)CC1 , what NanoBRET Fold Response is on record?
Reply: 1.23

Query: Need NanoBRET Fold Response of O=C(CCc1ccc2n1[B-](F)(F)[N+]1=C(c3ccc[nH]3)C=CC1=C2)NCCOCCOCCNC(=O)OCCOCCN1CCN(C2=Nc3ccccc3Sc3ccccc32)CC1 , thanks.
Reply: 0.94

###

NanoBRET Fold Response reference
Target: SSTR3 (Homo sapiens, UniProt P32745)
Construct: purchased Promega (in-house HiBiT-GPCR construct library, NanoBRET)
Sequence (P32745 whole entry): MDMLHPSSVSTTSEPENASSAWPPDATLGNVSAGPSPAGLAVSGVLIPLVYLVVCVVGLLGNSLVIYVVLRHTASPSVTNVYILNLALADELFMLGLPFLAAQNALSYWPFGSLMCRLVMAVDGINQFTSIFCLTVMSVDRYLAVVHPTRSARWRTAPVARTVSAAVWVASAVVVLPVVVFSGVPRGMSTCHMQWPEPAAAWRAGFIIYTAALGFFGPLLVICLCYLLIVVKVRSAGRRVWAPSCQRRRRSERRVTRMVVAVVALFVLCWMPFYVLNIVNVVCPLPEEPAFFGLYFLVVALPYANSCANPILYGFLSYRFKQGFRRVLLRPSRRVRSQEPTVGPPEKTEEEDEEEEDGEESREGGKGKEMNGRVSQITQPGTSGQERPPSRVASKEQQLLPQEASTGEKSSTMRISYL
Assay: NanoBRET screen HiBiT-SSTR3 in HEK293
Assay type: binding
Details: SSTR3; tracer 0.1μM
Write the number on its own, no unit after it.

Field: example entries. Status: answers known.
| Compound | NanoBRET Fold Response |
| --- | --- |
| O=C(CCc1ccc2n1[B-](F)(F)[N+]1=C(c3ccc[nH]3)C=CC1=C2)NCc1ccc(C(=O)NCCOCCC(=O)N[C@@H]2CC[C@@]3(O)[C@H]4Cc5ccc(O)c6c5[C@@]3(CCN4CC3CC3)[C@H]2O6)cc1 [Naltrexone-3-NB590] | 0.97 |
| O=C(CCOCCOCCOCCOCCNC(=O)CCc1ccc2n1[B-](F)(F)[N+]1=C(c3ccc[nH]3)C=CC1=C2)NCCCN1CCN(C2=Nc3ccccc3Oc3ccc(Cl)cc32)CC1 [Loxapine-a-2-NB590] | 1.01 |

Kindly consider the entry below.
Query: Which NanoBRET Fold Response is reported for this compound? CC(C)N(CC[C@H](c1ccccc1)c1cc(CCNC(=O)c2ccc(CNC(=O)CCc3ccc4n3[B-](F)(F)[N+]3=C(c5ccc[nH]5)C=CC3=C4)cc2)ccc1O)C(C)C [Tolterodine-BZ-NB590]
Reply: 1.01

###

Documented NanoBRET Fold Response across a set of compounds
Target: TACR2 (Homo sapiens, UniProt P21452)
Construct: purchased Promega (in-house HiBiT-GPCR construct library, NanoBRET)
Sequence (P21452 whole entry): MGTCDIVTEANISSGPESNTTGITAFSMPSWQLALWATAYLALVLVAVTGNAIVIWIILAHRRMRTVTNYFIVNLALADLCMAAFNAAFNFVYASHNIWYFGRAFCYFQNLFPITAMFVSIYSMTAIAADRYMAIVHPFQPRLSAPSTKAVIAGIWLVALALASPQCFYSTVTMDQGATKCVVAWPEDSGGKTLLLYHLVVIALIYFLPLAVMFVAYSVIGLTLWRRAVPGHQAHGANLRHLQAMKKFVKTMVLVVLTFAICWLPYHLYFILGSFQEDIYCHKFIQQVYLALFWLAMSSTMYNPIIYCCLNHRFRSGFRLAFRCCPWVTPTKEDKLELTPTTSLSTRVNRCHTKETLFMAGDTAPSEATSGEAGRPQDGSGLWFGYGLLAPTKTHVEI
Assay: NanoBRET screen HiBiT-TACR2 in HEK293
Assay type: binding
Settings: TACR2; tracer 1μM
Lab note: jot down the number only; don't add units.

# count of solved cases: 5
| Mol Smiles | Experimental Target | Test Result |
| --- | --- | --- |
| COc1ccccc1N1CCN(CCCCN2C(=O)c3ccc(CNC(=O)CCOCCOCCOCCOCCNC(=O)CCc4ccc5n4[B-](F)(F)[N+]4=C(c6ccc[nH]6)C=CC4=C5)cc3C2=O)CC1 | TACR2 (Homo sapiens, UniProt P21452) | 1.04 |
| N#CN=C(NCCCOc1cccc(CN2CCCCC2)c1)NCCNC(=O)CCOCCOCCOCCOCCNC(=O)CCc1ccc2n1[B-](F)(F)[N+]1=C(c3ccc[nH]3)C=CC1=C2 | TACR2 (Homo sapiens, UniProt P21452) | 1.02 |
| COc1ccccc1N1CCN(CCCCN2C(=O)c3ccc(CNC(=O)CCOCCNC(=O)c4ccc(CNC(=O)CCc5ccc6n5[B-](F)(F)[N+]5=C(c7ccc[nH]7)C=CC5=C6)cc4)cc3C2=O)CC1 | TACR2 (Homo sapiens, UniProt P21452) | 1.09 |
| CCCn1c(=O)c2[nH]c(-c3ccc(OCC(=O)NCCNC(=O)CCOCCNC(=O)c4ccc(CNC(=O)CCc5ccc6n5[B-](F)(F)[N+]5=C(c7ccc[nH]7)C=CC5=C6)cc4)cc3)nc2n(CCC)c1=O | TACR2 (Homo sapiens, UniProt P21452) | 1.21 |
| O=C(CCc1ccc2n1[B-](F)(F)[N+]1=C(c3ccc[nH]3)C=CC1=C2)NCCOCCOCCNC(=O)OCCOCCN1CCN(C2=Nc3ccccc3Sc3ccccc32)CC1 | TACR2 (Homo sapiens, UniProt P21452) | 0.72 |

Query: I am curious: what NanoBRET Fold Response value has been reported for Cc1cc2c(s1)Nc1ccccc1N=C2N1CCN(CCCNC(=O)CCOCCOCCOCCOCCNC(=O)CCc2ccc3n2[B-](F)(F)[N+]2=C(c4ccc[nH]4)C=CC2=C3)CC1 ?
Reply: 0.88
